Target: D(1A) dopamine receptor (Homo sapiens) (UniProt P21728)
Sequence (P21728 whole entry, looked up): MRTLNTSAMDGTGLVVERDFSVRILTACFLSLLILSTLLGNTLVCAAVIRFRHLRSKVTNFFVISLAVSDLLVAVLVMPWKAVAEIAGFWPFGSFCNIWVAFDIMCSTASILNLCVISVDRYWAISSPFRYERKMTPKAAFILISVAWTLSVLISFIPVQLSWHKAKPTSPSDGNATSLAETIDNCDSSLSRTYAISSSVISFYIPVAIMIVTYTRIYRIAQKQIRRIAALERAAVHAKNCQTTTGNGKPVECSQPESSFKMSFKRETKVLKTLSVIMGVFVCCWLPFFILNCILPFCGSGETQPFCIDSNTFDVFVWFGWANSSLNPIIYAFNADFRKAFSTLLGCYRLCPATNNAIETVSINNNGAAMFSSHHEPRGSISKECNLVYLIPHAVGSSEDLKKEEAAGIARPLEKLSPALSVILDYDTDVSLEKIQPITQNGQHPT
Test: Antagonist of Human D 1 Dopamine Receptor: qHTS; also: % is scaled to controls: 0 for no effect and ±100 for the full control effect
Conditions: HEK293 TREx D1 cells, calcium flux, dopamine EC80; at 10 µM; active compounds read low
The campaign covered roughly 360,000 compounds. About 11,000 (3.1%) were called active. The entries come from a sample that favours actives as a whole.
// values below are reported activity change, negative = inhibition
Only the number, expressed in %, is required.

For orientation, consider the following solved cases.
compound: CCOC(=O)c1ccc2[nH]c3c(c2c1)CCCC3NC=O (stereo unspecified)
target: D(1A) dopamine receptor (Homo sapiens) (UniProt P21728)
unit.abbrev: %
activity change, negative = inhibition: -2.15

compound: CCOc1ccc(Br)cc1CSC(=N)N
target: D(1A) dopamine receptor (Homo sapiens) (UniProt P21728)
unit.abbrev: %
activity change, negative = inhibition: 2.93

Request - read-out activity change, negative = inhibition | tested on D(1A) dopamine receptor (Homo sapiens) (UniProt P21728) | compound `Cc1c(C(=O)N(C)C)sc2c1c(=O)n(-c1ccc(F)cc1)c(=O)n2CC(=O)N(C)c1ccccc1`
-0.832

Request - read-out activity change, negative = inhibition | tested on D(1A) dopamine receptor (Homo sapiens) (UniProt P21728) | compound `Cc1ccc2[nH]c3c(c2c1)CN(C(=O)CN1CCN(c2ccccc2)CC1)CC3`
-26.5

Request - read-out activity change, negative = inhibition | tested on D(1A) dopamine receptor (Homo sapiens) (UniProt P21728) | compound C=CCN1C(=NC(=O)COc2ccccc2)SC2CS(=O)(=O)CC21 (stereo unspecified)
5.52

Request - read-out activity change, negative = inhibition | tested on D(1A) dopamine receptor (Homo sapiens) (UniProt P21728) | compound `O=C1CCCc2c1[nH]c1ccc(Br)cc21`
12

----------
// values below are reported activity change, negative = inhibition
Target: D(1A) dopamine receptor (Homo sapiens)
Test: Antagonist of Human D 1 Dopamine Receptor: qHTS; also: % is scaled to controls: 0 for no effect and ±100 for the full control effect
Conditions: HEK293 TREx D1 cells, calcium flux, dopamine EC80; at 10 µM; active compounds read low
In all, about 360,000 compounds went through this assay and about 11,000 (3.1%) were called active. The entries come from a sample that favours actives as a whole.
Only the number, expressed in %, is required.

For orientation, consider the following solved cases.
compound: Cc1ccc2c(=O)c(C(=O)c3ccc(Cl)cc3)cn(CC(=O)NC3CCCCC3)c2n1
unit.abbrev: %
observed.result: -2.17
--
compound: COc1ccc(CNC(=O)CCc2c(C)nn(-c3ccc(N4CCCC4)nn3)c2C)cc1
unit.abbrev: %
observed.result: 8.22
--
compound: Fc1ccc(-c2nn(-c3ccccc3Cl)c3c2cnc2ccccc23)cc1
unit.abbrev: %
observed.result: 15
--
compound: Cc1nc(N2CCN(c3ccccn3)CC2)c2c(C)c(C(=O)Nc3ccc(F)cc3)sc2n1
unit.abbrev: %
observed.result: 1.11
--
compound: O=C(NC(=O)c1cc(OCC(F)(F)F)ccc1OCC(F)(F)F)Nc1ccccc1
unit.abbrev: %
observed.result: -35
--
compound: Cc1ccc(Cn2c(CNC(=O)Cc3cccc(C)c3)nc3cccnc32)cc1
unit.abbrev: %
observed.result: -3.78
--
compound: CC(=O)Nc1c(C)nn(-c2ccccc2)c1N1CCC(C(=O)Nc2cc(Cl)ccc2C)CC1
unit.abbrev: %
observed.result: -18.9
--
compound: Cc1ccc(C)c(N2CCN(C(=O)Cc3c(C(=O)O)c(C)cn3C)CC2)c1
unit.abbrev: %
observed.result: 3.31

Please report the recorded activity change, negative = inhibition for COCc1ccc(C(=O)N2CCc3c([nH]c4ccccc34)C2c2ccccn2)s1 (stereo unspecified) .
-33.8

Please report the recorded activity change, negative = inhibition for CCOc1ccccc1C1CC(c2ccccc2)Nc2nc(N)nn21 (stereo unspecified) .
-30.1

Please report the recorded activity change, negative = inhibition for `Cc1c(CN2CCC(CO)(CCOc3ccccc3)CC2)[nH]c2ccc(Cl)cc12` .
-2.77

Please report the recorded activity change, negative = inhibition for `Cc1ccc(CSc2nc3cccnc3n2Cc2ccc(C(=O)NC3CC3)cc2)cc1` .
-0.852

Please report the recorded activity change, negative = inhibition for `O=C(O)c1ccc(Cn2c(SCc3ccc(F)cc3)nc3ccncc32)cc1` .
11.2

Please report the recorded activity change, negative = inhibition for `Cc1cccc(C)c1-n1ncc(C(=O)NCCCN2CCCCC2)c1C1CCN(C(=O)OC(C)(C)C)CC1` .
40.2

Please report the recorded activity change, negative = inhibition for COc1ccc(N=C2SC(C(=O)Nc3ccc(F)cc3)CC(=O)N2C)cc1 (stereo unspecified) .
5.67

Please report the recorded activity change, negative = inhibition for `COc1ccc2c(c1)c(N1CCCC1=O)c(C(=O)Nc1ccc(OC)c(Cl)c1)n2C` .
11.9

Please report the recorded activity change, negative = inhibition for `CCN(CC)S(=O)(=O)c1ccc(C(=O)N=c2sc3cccc(OC)c3n2C)cc1` .
-7.05

Please report the recorded activity change, negative = inhibition for `Cc1ccc2c(=O)c(C(=O)c3ccc(F)cc3)cn(CC(=O)NC3CCCCC3)c2n1` .
-3.19

Please report the recorded activity change, negative = inhibition for `CCOc1ccc(S(=O)(=O)N(CC(=O)NCCSCc2ccc(C)cc2)c2ccccc2)cc1` .
-1.46

Please report the recorded activity change, negative = inhibition for Cc1ccc(C2c3[nH]c4ccccc4c3CCN2C(=O)c2cccc(C)c2)cc1 (stereo unspecified) .
-0.549

Please report the recorded activity change, negative = inhibition for `CCOc1ccc(CCNC(=O)Nc2ccccc2)cc1OCC` .
14.7

----------
Biological target: D(1A) dopamine receptor (Homo sapiens)
Assay: Antagonist of Human D 1 Dopamine Receptor: qHTS; also: % is scaled to controls: 0 for no effect and ±100 for the full control effect
Settings: HEK293 TREx D1 cells, calcium flux, dopamine EC80; at 10 µM
Hit rate of the full screen: of about 360,000 compounds, about 11,000 (3.1%) were called active. Rule as the data show it: active = activity change below about -30%; inactive = the rest. What follows is part of a selection rich in actives, with near analogues and random picks from the rest.
Answer with one of the outcomes given here: yes (1) (active), no (0) (inactive)

Some solved cases for reference:
compound: CN(C(=O)CSc1nc2ccccc2n1Cc1ccccc1C#N)c1ccccc1
cat: no (0)

compound: CCN(CC)CCNC(=O)c1cc2c(=O)oc3ccc(C)cc3c2s1
cat: no (0)

compound: CCCCCCCCCCCCN1C(=O)CSC1c1cccnc1 (configuration not stated)
cat: yes (1)

Can you look up the reported call for `COc1cc(NS(=O)(=O)c2ccc(NC(=O)CN3C(=O)c4ccccc4C3=O)cc2)ncn1` for me?
no (0)

Can you look up the reported call for `Cc1ccc(-c2nnc(SCC(=O)NCc3ccccc3)nc2-c2ccc(C)cc2)cc1` for me?
no (0)

Can you look up the reported call for `CCCCc1ccc(NC(=O)NCc2cccnc2)cc1` for me?
no (0)

Can you look up the reported call for `CCn1c(SCc2cc(=O)n3ccsc3n2)nc2ccccc21` for me?
no (0)

Can you look up the reported call for `O=C(O)CCC(=O)N(Cc1ccccc1)Cc1ccccc1` for me?
no (0)

Can you look up the reported call for `O=C(OCc1cc(=O)n2ccsc2n1)C1(c2ccc(Cl)cc2)CC1` for me?
no (0)

Can you look up the reported call for `O=C(O)CCCc1ccccc1` for me?
yes (1)

Can you look up the reported call for `O=C(CCCc1ccccc1)NCc1ccccc1` for me?
no (0)

Can you look up the reported call for `CSc1nn(Cc2cccc(C)c2)c(N)c1S(=O)(=O)c1ccccc1` for me?
no (0)

----------
Target: D(1A) dopamine receptor (Homo sapiens) (UniProt P21728)
Test: Antagonist of Human D 1 Dopamine Receptor: qHTS; also: % is scaled to controls: 0 for no effect and ±100 for the full control effect
Conditions: HEK293 TREx D1 cells, calcium flux, dopamine EC80; at 10 µM
Experimental: Dopamine receptors (DARs) are involved in the etiology and/or therapy of a number of neuropsychiatric and endocrine disorders. […] Freshly passaged cells are plated in 1536 well black, clear bottom plates at a density of 4000 cells/well in 3 ul of complete media containing 1x tetracycline inducer. […] Agonist read: A 10 cycle (1 second/cycle) baseline measurement is taken and then the FDSS online 1536 pintool delivers 23 nl of compound library (as well as dopamine controls) to the plate. […]
About 11,000 (3.1%) of roughly 360,000 compounds were called active. Rule as the data show it: active = activity change below about -30%; inactive = the rest. The list comes from a sample in which actives are over-represented; it also holds close analogues and randomly drawn compounds.
Answer with one of the outcomes given here: 1.0 = active, 0.0 = inactive

molecule: Cc1oc2ccc(O)c(CN3CCC(C)CC3)c2c1C(=O)Nc1ccccc1
cat: 0.0
--
molecule: Cn1c(=O)n(Cc2c(F)cccc2Cl)c(=O)c2c1nc1n2CCN1c1ccc(F)cc1
cat: 0.0
--
molecule: CC1CCN(S(=O)(=O)c2ccc3c(ccn3CCC(=O)NCc3ccc(N(C)C)cc3)c2)CC1
cat: 1.0
--
molecule: O=C(COC(=O)c1cccc(Cl)c1)Nc1ccc2[nH]c(=O)[nH]c2c1
cat: 0.0
--
molecule: CC1CCN(S(=O)(=O)c2ccc3c(ccn3CC(=O)O)c2)CC1
cat: 0.0

Can you look up the reported call for Cc1ccc(-c2nnc(Nc3ccc(OCC(N)=O)cc3)c3ccccc23)cc1S(=O)(=O)NCC1CCCO1 (stereo not given) for me?
0.0

Can you look up the reported call for `COc1ccc(C(=O)OCC(=O)Nc2ccc3[nH]c(=O)[nH]c3c2)c(OC)c1OC` for me?
1.0
